// data source = patent US10975060B2

- protocolDetails: Relaxivity measurements at 1.4 T (MiniSpec mq60, 60 MHz, 37 °C) in water and human plasma
- Type: physicochemical
- conditionParameters: 1.41 T, water, normalized to Gd

compound	unitSpec	r1 water
O=C([O-])CN1CCN(CC(=O)[O-])CCN(CC(=O)N(CC(=O)NCC(CNC(=O)CN(Cc2ccccc2)C(=O)CN2CCN(CC(=O)[O-])CCN(CC(=O)[O-])CCN(CC(=O)[O-])CC2)(CNC(=O)CN(Cc2ccccc2)C(=O)CN2CCN(CC(=O)[O-])CCN(CC(=O)[O-])CCN(CC(=O)[O-])CC2)CNC(=O)CN(Cc2ccccc2)C(=O)CN2CCN(CC(=O)[O-])CCN(CC(=O)[O-])CCN(CC(=O)[O-])CC2)Cc2ccccc2)CCN(CC(=O)[O-])CC1.[Gd+3].[Gd+3].[Gd+3].[Gd+3] [Example 10]	L/mmol/s	11.5
CN(CC(=O)NCC(CNC(=O)CN(C)C(=O)CN1CCN(CC(=O)[O-])CCN(CC(=O)[O-])CCN(CC(=O)[O-])CC1)(CNC(=O)CN(C)C(=O)CN1CCN(CC(=O)[O-])CCN(CC(=O)[O-])CCN(CC(=O)[O-])CC1)CNC(=O)CN(C)C(=O)CN1CCN(CC(=O)[O-])CCN(CC(=O)[O-])CCN(CC(=O)[O-])CC1)C(=O)CN1CCN(CC(=O)[O-])CCN(CC(=O)[O-])CCN(CC(=O)[O-])CC1.[Gd+3].[Gd+3].[Gd+3].[Gd+3] [Example 1]	L/mmol/s	10.1
O=C([O-])CN1CCN(CC(=O)[O-])CCN(CC(=O)N(CC(=O)NCC(CNC(=O)CN(C(=O)CN2CCN(CC(=O)[O-])CCN(CC(=O)[O-])CCN(CC(=O)[O-])CC2)C2CC2)(CNC(=O)CN(C(=O)CN2CCN(CC(=O)[O-])CCN(CC(=O)[O-])CCN(CC(=O)[O-])CC2)C2CC2)CNC(=O)CN(C(=O)CN2CCN(CC(=O)[O-])CCN(CC(=O)[O-])CCN(CC(=O)[O-])CC2)C2CC2)C2CC2)CCN(CC(=O)[O-])CC1.[Gd+3].[Gd+3].[Gd+3].[Gd+3] [Example 7]	L/mmol/s	10.6
O=C([O-])CN1CCN(CC(=O)[O-])CCN(CC(=O)N(CC(=O)NCC(CNC(=O)CN(C(=O)CN2CCN(CC(=O)[O-])CCN(CC(=O)[O-])CCN(CC(=O)[O-])CC2)C2CCCC2)(CNC(=O)CN(C(=O)CN2CCN(CC(=O)[O-])CCN(CC(=O)[O-])CCN(CC(=O)[O-])CC2)C2CCCC2)CNC(=O)CN(C(=O)CN2CCN(CC(=O)[O-])CCN(CC(=O)[O-])CCN(CC(=O)[O-])CC2)C2CCCC2)C2CCCC2)CCN(CC(=O)[O-])CC1.[Gd+3].[Gd+3].[Gd+3].[Gd+3] [Example 8]	L/mmol/s	11.7
CCN(CC(=O)NCC(CNC(=O)CN(CC)C(=O)CN1CCN(CC(=O)[O-])CCN(CC(=O)[O-])CCN(CC(=O)[O-])CC1)(CNC(=O)CN(CC)C(=O)CN1CCN(CC(=O)[O-])CCN(CC(=O)[O-])CCN(CC(=O)[O-])CC1)CNC(=O)CN(CC)C(=O)CN1CCN(CC(=O)[O-])CCN(CC(=O)[O-])CCN(CC(=O)[O-])CC1)C(=O)CN1CCN(CC(=O)[O-])CCN(CC(=O)[O-])CCN(CC(=O)[O-])CC1.[Gd+3].[Gd+3].[Gd+3].[Gd+3] [Example 2]	L/mmol/s	10.4
